Ref: ChEMBL document CHEMBL1151906

assay: Drug absorption in rat assessed as recovery of unchanged drug in feces at 0.5 mg/kg, po after 24 hrs; type: ADME, organism-based; parameters: dose 0.5 mg/kg, route oral; details: faeces, read-out: Drug uptake
READOUT TYPE: dose excreted at 24 h (%)

(a) CC(C)(CC(=O)NC1CC1)CC(=O)N[C@H]1C2CC3CC1C[C@](O)(C3)C2
(b) CC(C)(CC(=O)NC1CC1)CC(=O)N[C@H]1C2CC3CC1C[C@](C(N)=O)(C3)C2
-- ask Choose between a and b : whose measured dose excreted at 24 h value is numerically larger? Mark your selection by writing its label.
-- reply b
(b: 50%, a: 22%)
